Reported growth inhibition values follow for various compounds
# TEST PROTOCOL: NCI Yeast Anticancer Drug Screen. Data for the sgs1 mgt1 strain (AID 161);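 further: 0% = growth of cultures given vehicle only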
# DETAILS: S. cerevisiae sgs1 mgt1 strain, at 50.0 µM, stronger effect = higher value
This is part of a sample that, as a whole, favours compounds with a hit. Of some 79,000 tested, about 15% had one in any assay.
A number alone suffices; assume %.

[
  {
    "COMPOUND": "COc1ccc2c(c1)CC1c3c(ccc(OC)c3O)CC2N1C (stereo unspecified)",
    "growth inhibition, %": 93.7
  },
  {
    "COMPOUND": "Nc1nc(=O)n(C2OC(CO)C(O)C2O)cc1[N+](=O)[O-] (stereo unspecified)",
    "growth inhibition, %": 4.45
  },
  {
    "COMPOUND": "C/C(=N\\Oc1ncc([N+](=O)[O-])c(O/N=C(\\C)c2ccccc2)n1)c1ccccc1",
    "growth inhibition, %": 83
  }
]

Inquiry: If you can, please state the reported growth inhibition value of `c1cnc2c(Oc3nc(Oc4cccc5cccnc45)nc(Oc4cccc5cccnc45)n3)cccc2c1` .
Reply text: 94.1

Inquiry: If you can, please state the reported growth inhibition value of O=C(OCCCN1CCCC1)C(c1ccccc1)C1CCCCC1 (stereo unspecified) .
Reply text: 85.9

Inquiry: If you can, please state the reported growth inhibition value of `C[C@]12CC[C@H](O)C[C@@H]1CC[C@@H]1[C@@H]2CC[C@]2(C)C=CC[C@@H]12` .
Reply text: 46.8

Inquiry: If you can, please state the reported growth inhibition value of COc1ccc(C2Oc3ccc(Cl)cc3C=C2[N+](=O)[O-])cc1 (stereo unspecified) .
Reply text: 82.5

Inquiry: If you can, please state the reported growth inhibition value of Cc1cn(C2OC(CO)C(O)C(O)C2N)c(=O)[nH]c1=O (stereo unspecified) .
Reply text: 56.5
